Each entry below carries its reported pKd.
# targetOfAssay: T1, human βI-tryptase monomer (Homo sapiens, UniProt Q15661)
# T1 construct: mature human βI-tryptase, Ile31-Pro275 of Uniprot Q15661 (Ile16-Pro246 in chymotrypsinogen numbering); The monomer used in SPR and HDX-MS; also called monomeric βI-tryptase; monomeric β-tryptase
# T1 sequence (Q15661 31-275): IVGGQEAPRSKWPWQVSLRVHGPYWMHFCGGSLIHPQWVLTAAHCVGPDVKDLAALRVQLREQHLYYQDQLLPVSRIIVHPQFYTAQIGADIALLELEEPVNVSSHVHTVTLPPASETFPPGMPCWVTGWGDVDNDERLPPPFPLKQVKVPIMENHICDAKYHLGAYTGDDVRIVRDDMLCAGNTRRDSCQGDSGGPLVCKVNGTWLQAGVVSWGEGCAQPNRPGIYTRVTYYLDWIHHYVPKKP
# test: SPR; Biacore T200; E104 IgG variants captured on immobilised mouse anti-human IgG (Fc) antibody on CM5 chips; threefold dilutions of human βI-tryptase monomer injected at 30 µL/min, 25 °C; 1:1 Langmuir model; n = 2
# assaySetup: both partners purified
The quantity pKd is defined as the negative base-10 logarithm of the molar concentration.

Below, each entry is followed by its recorded pKd result.
binder | reportedValue
humanized E104.v2 IgG1 (antibody, V domains shown, variable domain of the heavy chain as in m6 (PDB 6VVU, Fab heavy chain) with V71R and F78V (Kabat numbering); human IgG1 heavy chain constant region; as the light chain of m6 (PDB 6VVU, Fab light chain); IgG1; also called IgG1.v2; WT IgG1 hinge; source: 293 cells, transient transfection, purified (MabSelect SuRe, SEC); copies: 2 + 2) VH: EVQLVESGPGLVKPSETLSLTCTVSRFSLIGYAITWIRQPPGKGLEWIGGISSAATTFYSSWAKSRVTISRDTSKNQVSLKLSSVTAADTAVYYCARDPRGYGAALDRLDLWGQGTLVTVSS VL: DIQMTQSPSSLSASVGDRVTITCQSIKSVYNNRLGWYQQKPGKAPKLLIYETSILTSGVPSRFSGSGSGTDFTLTISSLQPEDFATYYCAGGFDRSGDTTFGQGTKVEIK | 9.22
E104.v2 IgG1 hinge variant G1 + GG (antibody, V domains shown, variable domain of the heavy chain as in m6 (PDB 6VVU, Fab heavy chain) with V71R and F78V (Kabat numbering); human IgG1 heavy chain constant region before the upper hinge (CH1); upper hinge of the variant; human IgG1 heavy chain constant region after the upper hinge (core hinge from C226, CH2, CH3); as the light chain of m6 (PDB 6VVU, Fab light chain); IgG1 with an extended upper hinge; source: …) VH: EVQLVESGPGLVKPSETLSLTCTVSRFSLIGYAITWIRQPPGKGLEWIGGISSAATTFYSSWAKSRVTISRDTSKNQVSLKLSSVTAADTAVYYCARDPRGYGAALDRLDLWGQGTLVTVSS VL: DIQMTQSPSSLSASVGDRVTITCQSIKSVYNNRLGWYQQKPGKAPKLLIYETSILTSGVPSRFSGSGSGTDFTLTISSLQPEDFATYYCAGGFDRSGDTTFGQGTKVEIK | 9.40

We next turn to a different binder, shown below.
Incoming: Specify measured pKd for E104.v2 IgG1 hinge variant G1 + G (antibody, V domains shown, variable domain of the heavy chain as in m6 (PDB 6VVU, Fab heavy chain) with V71R and F78V (Kabat numbering); human IgG1 heavy chain constant region before the upper hinge (CH1); upper hinge of the variant; human IgG1 heavy chain constant region after the upper hinge (core hinge from C226, CH2, CH3); as the light chain of m6 (PDB 6VVU, Fab light chain); IgG1 with an extended upper hinge; source: …) VH: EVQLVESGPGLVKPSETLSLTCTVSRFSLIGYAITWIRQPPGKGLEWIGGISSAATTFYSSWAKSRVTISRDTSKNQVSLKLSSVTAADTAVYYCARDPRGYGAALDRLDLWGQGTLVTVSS VL: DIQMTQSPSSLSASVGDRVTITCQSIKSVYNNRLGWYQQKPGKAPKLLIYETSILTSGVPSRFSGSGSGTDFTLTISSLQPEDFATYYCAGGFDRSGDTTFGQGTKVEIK .
Outgoing: 9.30
